assay: PSAC antagonists in infected red cells, primary screen, cell-based, P. falciparum Indochina, OD700, 18 h (AID 1157); conditions: P. falciparum Indochina infected erythrocytes, osmotic lysis OD700, 18 h; higher = more signal, called active from +8 up or from −8 down
Measured z-score, listed per entry.

# COMPOUND, z-score
measured = [
    ("CC(=O)NCCCC[C@@H]1NC(=O)[C@H]2C[C@@H](C(=O)NCCCCCNC(=O)CS)[C@@H](c3cccc(OCCO)c3)N2C1=O", 0.227),
    ("CC(C)CNC(=O)[C@@]1(c2ccc([N+](=O)[O-])cc2)CC(=O)N(C2CCCCC2)[C@@H]1c1ccc(CO)cc1", -0.013),
    ("CCOC(=O)C1=C[C@@H](C(C)(C)C)N(S(=O)(=O)c2ccc(C)cc2)[C@H]1c1cccc(Cl)c1", 0.39),
    ("CCC(CC)C(O)C1C=CC2C(=O)N(c3ccccc3)C(=O)C2N1Nc1ccc([N+](=O)[O-])cc1 (centres undefined)", 0.507),
]
